- Target Desc: RAF proto-oncogene serine/threonine-protein kinase (Homo sapiens)
- Sequence (P04049 whole entry): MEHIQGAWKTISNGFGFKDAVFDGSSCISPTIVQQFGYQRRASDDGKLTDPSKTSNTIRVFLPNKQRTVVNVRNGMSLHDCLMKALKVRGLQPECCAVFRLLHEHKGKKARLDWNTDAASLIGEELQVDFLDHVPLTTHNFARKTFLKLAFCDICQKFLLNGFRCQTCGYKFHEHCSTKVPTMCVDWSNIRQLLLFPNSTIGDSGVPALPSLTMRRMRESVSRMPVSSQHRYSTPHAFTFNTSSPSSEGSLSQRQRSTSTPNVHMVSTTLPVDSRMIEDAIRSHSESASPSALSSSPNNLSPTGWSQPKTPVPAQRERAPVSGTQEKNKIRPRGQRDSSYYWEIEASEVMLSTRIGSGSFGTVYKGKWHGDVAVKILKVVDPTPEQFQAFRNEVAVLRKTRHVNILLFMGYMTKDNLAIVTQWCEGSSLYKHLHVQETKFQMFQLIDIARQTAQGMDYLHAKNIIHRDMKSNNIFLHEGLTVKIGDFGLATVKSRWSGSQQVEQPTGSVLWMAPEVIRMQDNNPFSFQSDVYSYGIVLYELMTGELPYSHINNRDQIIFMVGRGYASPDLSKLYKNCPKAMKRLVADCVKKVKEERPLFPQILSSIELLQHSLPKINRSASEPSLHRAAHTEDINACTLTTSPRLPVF
- Test: Affinity Phenotypic Cellular interaction: (Western blot assay (phosphorylation of ERK in HFF cells expressing BRAF/RAS wt)) EUB0000655a RAF1
- Assay type: functional, cell-based
- Set-up: mode of action Inhibitor, recommended concentration 1 uM

| Smiles Structure | Uom | IC50 |
| --- | --- | --- |
| CN(C)CCOc1ccc(-c2nc(-c3ccncc3)c(-c3ccc4c(c3)CC/C4=N\O)[nH]2)cc1 | µM | 11 |

----------
- Target Desc: RAF proto-oncogene serine/threonine-protein kinase (Homo sapiens)
- Test: Affinity Phenotypic Cellular interaction: (Western blot assay (phosphorylation of ERK in HMEC cells expressing BRAF/RAS wt)) EUB0000655a RAF1
- Assay type: functional, cell-based
- Design: mode of action Inhibitor, recommended concentration 1 uM
pIC50: −log10 of the molar value.
Recorded Endpoint: pIC50

| Smiles Structure | Recorded Result |
| --- | --- |
| CN(C)CCOc1ccc(-c2nc(-c3ccncc3)c(-c3ccc4c(c3)CC/C4=N\O)[nH]2)cc1 | 5.29 |
